test: Toxicity against brine shrimp; assay type: organism-based; details: artemia, in vivo; read-out: LD50 (the source's name)
We begin with a simple list: items and their reported LC50.
RESULT TYPE: LC50

[[record]]
molecule = "COc1oc(C/C=C(\\C)CC/C=C(/C)C/C(C)=C/Cc2ccccc2)c(C)c(=O)c1OC [LEHUALIDE B]"
observed = "15 µg/mL"

[[record]]
molecule = "COc1oc(C/C=C(\\C)CCCCCCCCCS)c(C)c(=O)c1OC [LEHUALIDE D]"
observed = "15 µg/mL"

[[record]]
molecule = "COc1c(O)c(C)c(C/C=C(\\C)CC/C=C(/C)C/C(C)=C/Cc2ccccc2)oc1=O [LEHUALIDE A]"
observed = "50 µg/mL"

[[record]]
molecule = "COc1oc(C/C=C(\\C)CCCCCCCCCSC(C)=O)c(C)c(=O)c1OC [LEHUALIDE C]"
observed = "15 µg/mL"


Source listed as ChEMBL document CHEMBL1158814.
